biological target: UniProtKB Q92918; experiment: HPK1 Biochemical Assay (ADP-Glo luminescence; low ATP 10 μM or high ATP 200 μM); settings: 2 nM HPK1, 10 μM ATP; read-out: Biochemical Potency (low ATP)
pIC50: −log10 of the molar value.
measure: pIC50

Cc1ccc(-c2nc3cc(Nc4ccc(C5CCOCC5)c(CN5CCCC5)n4)ncc3s2)cn1 [Example 222]    > 7.00

Suppose we examine the compound Cc1cc(-c2nc3cc(Nc4cccc(N5C[C@@H]6C[C@H]5CN6C)n4)ncc3s2)ccn1 [Example 96] ; what pIC50 value has been reported?
> 7.00

====

Overview of reported IC50 across a group of compounds:
target: HPK1 (Homo sapiens, UniProt Q92918); assay: HPK1 Biochemical Assay (ADP-Glo luminescence; low ATP 10 μM or high ATP 200 μM); details: 2 nM HPK1, 10 μM ATP; read-out: Biochemical Potency (low ATP)
Sequence (Q92918 whole entry, species assumed): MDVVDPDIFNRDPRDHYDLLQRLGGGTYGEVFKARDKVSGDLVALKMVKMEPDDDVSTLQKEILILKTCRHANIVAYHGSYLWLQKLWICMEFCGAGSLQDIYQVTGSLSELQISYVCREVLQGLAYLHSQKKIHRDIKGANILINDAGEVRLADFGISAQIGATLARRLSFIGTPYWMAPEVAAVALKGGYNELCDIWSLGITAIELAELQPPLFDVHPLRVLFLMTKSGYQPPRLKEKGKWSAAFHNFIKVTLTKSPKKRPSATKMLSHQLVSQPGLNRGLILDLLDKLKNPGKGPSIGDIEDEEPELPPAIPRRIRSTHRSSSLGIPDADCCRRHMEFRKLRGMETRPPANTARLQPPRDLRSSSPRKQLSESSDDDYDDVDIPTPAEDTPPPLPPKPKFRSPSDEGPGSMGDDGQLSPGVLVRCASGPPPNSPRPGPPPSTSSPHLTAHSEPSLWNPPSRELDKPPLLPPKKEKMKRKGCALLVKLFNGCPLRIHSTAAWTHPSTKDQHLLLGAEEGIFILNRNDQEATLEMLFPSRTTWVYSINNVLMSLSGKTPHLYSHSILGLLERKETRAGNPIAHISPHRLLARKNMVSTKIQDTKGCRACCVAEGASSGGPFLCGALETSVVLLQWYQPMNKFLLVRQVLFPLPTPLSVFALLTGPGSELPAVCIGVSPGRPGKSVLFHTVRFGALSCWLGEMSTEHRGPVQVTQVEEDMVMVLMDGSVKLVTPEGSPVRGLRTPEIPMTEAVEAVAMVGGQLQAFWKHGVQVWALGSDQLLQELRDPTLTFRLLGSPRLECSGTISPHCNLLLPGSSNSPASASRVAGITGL

Previously resolved entries follow.
Cc1ccnn1-c1nc2cc(Nc3ccc(N4CCOCC4)c(CN4CCCC4)n3)ncc2s1    < 100 nM
Cc1cccnc1-c1nc2cc(Nc3cccc(N4CCN(C)C[C@@H]4C)n3)ncc2s1    1000 to 5000 nM
CCNC(C)c1nc(Nc2cc3nc(-c4c(F)cccc4F)sc3cn2)ccc1N1CCOCC1 (stereo not drawn)    < 100 nM

Suppose we examine the compound Cc1ccc(Nc2cc3nc(-c4cnn(CCC(N)=O)c4)sc3cn2)nc1CN1CCCC1 ; what IC50 value has been reported?
< 100 nM

// query: CN(C)C(=O)c1cccc(-c2nc3cc(Nc4cccc(N5C[C@@H]6C[C@H]5CN6C)n4)ncc3s2)c1
< 100 nM

// query: Cc1cccnc1-c1nc2cc(Nc3ccc(N4CCC(F)(F)C4)c(C(C)(C)N)n3)ncc2s1
< 100 nM

// query: Cc1cccnc1-c1nc2cc(Nc3ccc(C(F)(F)F)c(CN4CCCC4)n3)ncc2s1
100 to 1000 nM

// query: Cc1cccnc1-c1nc2cc(Nc3cccc(N4C[C@@H]5C[C@H]4CN5C(C)C)n3)ncc2s1
< 100 nM

// query: Cc1cccnc1-c1nc2cc(Nc3ccc(C)c(N4CC[C@@H](N)C4)n3)ncc2s1
< 100 nM

// query: c1cc(-c2nnco2)cc(-c2nc3cc(Nc4cccc(N5C[C@@H]6C[C@H]5CN6)n4)ncc3s2)c1
< 100 nM

// query: c1n[nH]cc1-c1nc2cc(Nc3ccc(N4CCOCC4)c(CN4CCCC4)n3)ncc2s1
< 100 nM

// query: Cc1ccc(Nc2cc3nc(-c4ncccc4C)sc3cn2)nc1CN1CCC[C@H]1CO
< 100 nM

// query: CC(c1nc(Nc2cc3nc(-c4c(F)cccc4F)sc3cn2)ccc1N1CCOCC1)N(C)C (stereo not drawn)
< 100 nM

// query: CN1C[C@@H]2C[C@H]1CN2c1cncc(Nc2cc3nc(-c4cccc(N5CCCC5=O)c4)sc3cn2)n1
< 100 nM

// query: Cc1cc(Nc2cc3nc(-c4ccnc(C)c4)sc3cn2)nc(OC2CNCC2(F)F)c1 (stereo not drawn)
< 100 nM

// query: Cc1ccc(Nc2cc3nc(-n4nccc4C)sc3cn2)nc1N1CC[C@H](O)C1
100 to 1000 nM

// query: Cc1ccc(Nc2cc3nc(-n4nccc4C)sc3cn2)nc1N1CCN(CCO)CC1
100 to 1000 nM

// query: Cc1cccnc1-c1nc2cc(Nc3ccc(C)c(N4C[C@@H]5C[C@H]4CN5)n3)ncc2s1
< 100 nM

====

molecular target: HPK1 (Homo sapiens, UniProt Q92918); test: HPK1 Biochemical Assay (ADP-Glo luminescence; low ATP 10 μM or high ATP 200 μM); details: 2 nM HPK1, 10 μM ATP; read-out: Biochemical Potency (low ATP)
pIC50: −log10 of the molar value.
Overview of reported pIC50 across a group of compounds:

Previously resolved entries follow.
C[C@H]1CCC(=O)N1c1nc2cc(Nc3ccc(C4CCOCC4)c(CN4CCCC4)n3)ncc2s1    > 7.00
O[C@@H]1CCN(c2nc3cc(Nc4ccc(C5CCOCC5)c(CN5CCCC5)n4)ncc3s2)C1    6.00 to 7.00
Cc1ccc(Nc2cc3nc(-c4cc(F)cc(F)c4)sc3cn2)nc1CN1CCCC1    6.00 to 7.00

Suppose we examine the compound Cc1cc(Nc2cc3nc(N4CCC[C@H](O)C4)sc3cn2)nc(O[C@H]2CCNC2)c1 ; what pIC50 value has been reported?
> 7.00

====

Overview of reported pIC50 across a group of compounds:
target: HPK1 (Homo sapiens, UniProt Q92918); test: HPK1 Biochemical Assay (ADP-Glo luminescence; low ATP 10 μM or high ATP 200 μM); conditions: HPK1 ADP-Glo assay, high ATP (200 μM ATP, 5 nM HPK1); read-out: Biochemical Potency (high ATP)
pIC50: −log10 of the molar value.

Previously resolved entries follow.
CN1C[C@@H]2C[C@H]1CN2c1nc(Nc2cc3nc(-c4cccc(C(C)(C)O)c4)sc3cn2)cc(C2CCOCC2)n1    > 7.00
Cc1cc(Nc2cc3nc(-c4cccc(C(=O)N(C)C)c4)sc3cn2)nc(N2C[C@@H]3C[C@H]2CN3CCOCCO)n1    > 7.00
CCN1C[C@@H]2C[C@H]1CN2c1nc(C)cc(Nc2cc3nc(-c4cccc(C(=O)N5CCC[C@@H]5COC)c4)sc3cn2)n1    > 7.00
Cc1cc(Nc2cc3nc(-c4cccc(S(=O)(=O)C5CC5)c4)sc3cn2)nc(N2C[C@@H]3C[C@H]2CN3CCO)n1    > 7.00

Suppose we examine the compound Cc1cc(Nc2cc3nc(-c4cccc(C(=O)N(C)C)c4)sc3cn2)nc(N2C[C@@H]3C[C@H]2CN3[C@H]2CCOC2)n1 ; what pIC50 value has been reported?
> 7.00

// query: CCN1C[C@@H]2C[C@H]1CN2c1nc(C)cc(Nc2cc3nc(-c4cccc(N5CCC(F)CC5)c4)sc3cn2)n1
> 7.00

// query: Cc1cc(Nc2cc3nc(-c4cccc(C(=O)N(C)C[C@@H]5CCOC5)c4)sc3cn2)nc(N2C[C@@H]3C[C@H]2CN3CCO)n1
> 7.00

====

Overview of reported IC50 across a group of compounds:
biological target: HPK1 (Homo sapiens); assay: HPK1 Biochemical Assay (ADP-Glo luminescence; low ATP 10 μM or high ATP 200 μM); conditions: 2 nM HPK1, 10 μM ATP; read-out: Biochemical Potency (low ATP)

Previously resolved entries follow.
CC(C)n1cc(-c2nc3cc(Nc4ccc(N5CCOCC5)c(CN5CCCC5)n4)ncc3s2)cn1    < 100 nM
Cc1cccnc1-c1nc2cc(Nc3ccc(C4CCOCC4)c(NCc4nccn4C)n3)ncc2s1    < 100 nM
c1cc(-c2nc3cc(Nc4ccc(C5CCOCC5)c(CN5CCOCC5)n4)ncc3s2)ccn1    < 100 nM
Cc1cc(-c2nc3cc(Nc4cccc(N5CCNCC5)n4)ncc3s2)ccn1    < 100 nM
CN1C[C@@H]2C[C@H]1CN2c1cncc(Nc2cc3nc(-c4cccc(S(=O)(=O)N(C)C)c4)sc3cn2)n1    100 to 1000 nM

Switching to the query record.
Identify the measured IC50 of Cc1ccc(Nc2cc3nc(-c4ccnn4C)sc3cn2)nc1O[C@H]1CCNC1 for HPK1 (Homo sapiens).
< 100 nM

Each recorded value in this set is attributed to patent US12649751B2.
